Data provenance is PubChem BioAssay (NCI).

# Test system: SNB-75 CNS
# Assay Explanation: NCI-60 one-dose screen, 48 h (100 = growth as untreated, 0 = no growth, -100 = all killed)
# Test Conditions: 10 µM unless noted
About 83,000 compounds went through this panel and 20% of them were active in at least one assay; those are over-represented in the sample as a whole. Activity calls are given as the source filed them. How the source made its calls: active means growth percent below 10; inactive means the rest.
// values below are reported growth
Value Kind: growth

{"Molecule": "COc1cccc(-c2nc(-c3ccc(NC(=O)C(C)C)cc3)[nH]c2-c2ccnc(Br)c2)c1", "Value Kind": "growth", "Assay Value": "10.5% (inactive)"}
{"Molecule": "COc1ccc2sc3c(NCCCNCCO)nc4ccccc4c3c(=O)c2c1", "Value Kind": "growth", "Assay Value": "65.9% (inactive)"}
{"Molecule": "C=CCc1cc(C)ccc1NC(C(=O)NCC(=O)OC)c1ccccc1 (stereo not given)", "Value Kind": "growth", "Assay Value": "88.9% (inactive)"}
{"Molecule": "COc1cc(OCc2cccc(-c3ccc(C(O)c4nccs4)cc3)c2C)cc(OC)c1CNCCNC(C)=O (stereo not given)", "Value Kind": "growth", "Assay Value": "85% (inactive)"}
{"Molecule": "COc1ccc(/C=C2\\Oc3cc(OCCN4CCC(Cc5ccccc5)CC4)ccc3C2=O)cc1OC", "Value Kind": "growth", "Assay Value": "80.8% (inactive)"}
{"Molecule": "C[C@]12CC[C@@H]3c4cc(OC(F)F)c(OS(N)(=O)=O)cc4CC[C@H]3[C@@H]1CC[C@@H]2O", "Value Kind": "growth", "Assay Value": "-15.7% (active)"}
{"Molecule": "O=C1c2cccc3cccc(c23)C(=O)N1N1C(=O)c2cccc3c(NC4CCCCC4)ccc(c23)C1=O", "Value Kind": "growth", "Assay Value": "87.5% (inactive)"}
{"Molecule": "COc1cc(C(=O)/C=C/c2sc(Cl)nc2Cl)cc(OC)c1OC", "Value Kind": "growth", "Assay Value": "73.1% (inactive)"}
{"Molecule": "O=C(N/N=C/[C@H](O)[C@H](O)[C@H](O)CO)c1ccc(NC(=O)c2cccnc2)cc1", "Value Kind": "growth", "Assay Value": "97.4% (inactive)"}
{"Molecule": "COc1cc(C2CC(c3ccc(N(C)C)cc3)=NN2C(C)=O)cc(OC)c1OC (stereo not given)", "Value Kind": "growth", "Assay Value": "-23.6% (active)"}
{"Molecule": "COc1cccc(Oc2ccccc2NC(=O)CNC(=O)c2cccc3ccccc23)c1", "Value Kind": "growth", "Assay Value": "28% [5 µM] (inactive)"}
{"Molecule": "O=C(COc1ccc(/C=C2\\Cc3ccc(Cl)cc3C2=O)cc1)Nc1nc2ccccc2s1", "Value Kind": "growth", "Assay Value": "88% (inactive)"}
{"Molecule": "CCOC(=O)C1=C(N)Oc2c(sc3c(C)cccc23)C1c1ccc(OC)cc1 (stereo not given)", "Value Kind": "growth", "Assay Value": "-3.57% (active)"}
{"Molecule": "NS(=O)(=O)c1ccc(-n2nc(C(=O)N/N=C\\c3ccc(F)cc3)cc2-c2ccc(Br)cc2)cc1", "Value Kind": "growth", "Assay Value": "37.4% (inactive)"}
{"Molecule": "O=S(=O)(NCCCNc1cc(-c2c(-c3cccc(O)c3)nc3sccn23)ccn1)c1cccc2ccccc12", "Value Kind": "growth", "Assay Value": "4.78% (active)"}
{"Molecule": "CCCCn1c(=O)c(-c2cc(-c3ccc(Cl)cc3)nc(-c3ccc(Cl)cc3)c2)cc2ccc(Cl)cc21", "Value Kind": "growth", "Assay Value": "86.4% (inactive)"}
{"Molecule": "Cc1nc(NC(=O)COc2ccc(/C=C3\\Cc4ccc(Cl)cc4C3=O)cc2)sc1C", "Value Kind": "growth", "Assay Value": "108% (inactive)"}
{"Molecule": "CC1=C(C)C(=O)C(Nc2cccc(C(=O)OC(C)(C)C)c2)=C(Br)C1=O", "Value Kind": "growth", "Assay Value": "59.7% (inactive)"}
{"Molecule": "c1ccc(OCc2nnc(-c3ccc(Oc4ccccc4)cc3)o2)cc1", "Value Kind": "growth", "Assay Value": "98.5% (inactive)"}
{"Molecule": "CNc1nc2c(s1)C(c1cc(F)ccc1F)CC(=O)N2 (stereo not given)", "Value Kind": "growth", "Assay Value": "32.4% (inactive)"}
